- system_under_test: HLA-DRB1*09:01 (Homo sapiens, UniProt P01903+P01911, A100R/A103E/D57H/D86V/F55Y/F60I/F76Y/I96F/K127E/L162R/M171V/P40D/Q125H/Q99R/R33Q/R42F/S133A/S66N/T210M/V115G/W38K/Y107V/Y59G/Y89S)
- Construct: HLA-DR heterodimers were purified from homozygous Epstein–Barr virus B-lymphoblastoid cell lines; host or cells: homozygous EBV B-lymphoblastoid cell line
- assay_name: Peptide/HLA-DR binding, competitive ELISA
- condition_set: ratio IC50 of peptide / IC50 of reference peptide CTP 427–441, lower = higher affinity, ratio 20 or less high, 20–100 moderate, three independent experiments
Relative binding affinity of peptide to HLA-DR molecules DRB1*0901 values by entry

// known answers, use as guide
[[record]]
substance = "15: SseB overlapping library peptide, residues 141–160 (KAALDNDANRNTDLMSQGQI) [Peptide 15]"
recorded_value = "> 689"

[[record]]
substance = "6: SseB overlapping library peptide, residues 51–70 (MVIQAIANNKFIEVQKNAER) [Peptide 6]"
recorded_value = "> 689"

[[record]]
substance = "11: SseB overlapping library peptide, residues 101–120 (EDVIKYMRDNGILIDGMTID) [Peptide 11]"
recorded_value = 34


Now consider the entry below.
Input: Would you mind telling me what Relative binding affinity of peptide to HLA-DR molecules DRB1*0901 value was observed for 12: SseB overlapping library peptide, residues 111–130 (GILIDGMTIDDYMAKYGDHG) [Peptide 12] ?
Output: > 689

* * *

- system_under_test: HLA-DRB1*03:01 (Homo sapiens, UniProt P01903+P01911, A100K/A102G/A103R/A169T/F55Y/I96L/K41T/L162R/M171V/P40S/Q125H/Q178H/Q39Y/R42S/S66N/T106N/T262R/W38E/Y61H)
- Construct: HLA-DR heterodimers were purified from homozygous Epstein–Barr virus B-lymphoblastoid cell lines; host or cells: homozygous EBV B-lymphoblastoid cell line
- assay_name: Peptide/HLA-DR binding, competitive ELISA
- condition_set: ratio IC50 of peptide / IC50 of reference peptide MT2-16, lower = higher affinity, ratio 20 or less high, 20–100 moderate, three independent experiments
Relative binding affinity of peptide to HLA-DR molecules DRB1*0301 values by entry

Input: Would you mind telling me what Relative binding affinity of peptide to HLA-DR molecules DRB1*0301 value was observed for 12: SseB overlapping library peptide, residues 111–130 (GILIDGMTIDDYMAKYGDHG) [Peptide 12] ?
Output: 18

Input: Would you mind telling me what Relative binding affinity of peptide to HLA-DR molecules DRB1*0301 value was observed for 15: SseB overlapping library peptide, residues 141–160 (KAALDNDANRNTDLMSQGQI) [Peptide 15] ?
Output: 57

Input: Would you mind telling me what Relative binding affinity of peptide to HLA-DR molecules DRB1*0301 value was observed for 6: SseB overlapping library peptide, residues 51–70 (MVIQAIANNKFIEVQKNAER) [Peptide 6] ?
Output: > 119

Input: Would you mind telling me what Relative binding affinity of peptide to HLA-DR molecules DRB1*0301 value was observed for 9: SseB overlapping library peptide, residues 81–100 (MDEVIAKAAKGDAKTKEEVP) [Peptide 9] ?
Output: 41

Input: Would you mind telling me what Relative binding affinity of peptide to HLA-DR molecules DRB1*0301 value was observed for 3: SseB overlapping library peptide, residues 21–40 (GVSNADTGSQDDLSQQNPFA) [Peptide 3] ?
Output: > 119

Source listed as paper PMC4212957.
